Consider the following molecules; for each one, report its pIC50.
Tested on: Plasmodium falciparum
Assay: Antimalarial activity against […] Plasmodium falciparum W2
Type: functional, organism-based
Give bare numbers, as −log10 of the molar value.

>>> quantitativereadout("O=C(CSc1nnc(Cc2ccccc2)n1-c1ccc(Cl)cc1)N1CCc2ccccc21")
4.31

Lookup: Consider the molecule shown here: `O=C(CSc1nnc(Cc2ccccc2)n1-c1ccccc1)N1CCc2ccccc21` What is its recorded pIC50?
Found: 5.34

----------
Test system: Plasmodium falciparum
Assay: Antimalarial activity against chloroquine-resistant Plasmodium falciparum K1
Type: functional, organism-based
endpointLabel: IC50

Please review the following examples before continuing.
>>> result("Cc1ccc(-n2cc(CNc3ccc4nc(-c5ccccc5)c(-c5ccccc5)nc4c3)nn2)cc1")
"7.1 to 153 µM"
>>> result("Fc1ccc(-c2nc3ccc(NCc4cn(-c5ccc(F)cc5)nn4)cc3nc2-c2ccc(F)cc2)cc1")
"7.1 to 153 µM"
>>> result("Cc1ccc(-n2cc(CN(Cc3cn(-c4ccc(C)cc4)nn3)c3ccc4nc(-c5ccccc5)c(-c5ccccc5)nc4c3)nn2)cc1")
"9.76 to 3540 µM"
>>> result("COc1cccc(-n2cc(CNc3ccc4nc(-c5ccc(F)cc5)c(-c5ccc(F)cc5)nc4c3)nn2)c1")
"7.1 to 153 µM"
>>> result("Fc1ccc(-n2cc(CNc3ccc4nc(-c5ccccc5)c(-c5ccccc5)nc4c3)nn2)cc1")
"7.1 to 153 µM"

Required: IC50, one value per compound below.
1. O=[N+]([O-])c1cccc(-n2cc(CN(Cc3cn(-c4cccc([N+](=O)[O-])c4)nn3)c3ccc4nc(-c5ccccc5)c(-c5ccccc5)nc4c3)nn2)c1
2. Fc1ccc(-c2nc3ccc(N(Cc4cn(-c5cccc(C(F)(F)F)c5)nn4)Cc4cn(-c5cccc(C(F)(F)F)c5)nn4)cc3nc2-c2ccc(F)cc2)cc1

Found:
1: 9.76 to 3540 µM; 2: 9.76 to 3540 µM

----------
Assay: Selectivity index, ratio of CC50 for human MRC5 cells assessed as reduction in cell viability to MIC for […]
Type: toxicity
Details: read-out: Selectivity Index
endpointLabel: selectivity ratio
Give bare numbers.

Lookup: Item CC[C@H]1OC(=O)C[C@@H](O)[C@H](C)C(O[C@@H]2O[C@H](C)[C@@H](O)[C@H](N(C)C)[C@H]2O)C(CC=O)C[C@@H](C)C(=N\OCCCc2cn(-c3cnc4ccccc4c3)nn2)/C=C/C(C)=C/[C@@H]1CO[C@@H]1O[C@H](C)[C@@H](O)[C@@H](OC)[C@H]1OC (stereo partly specified) has what recorded selectivity ratio?
Found: 59

----------
Test system: Plasmodium falciparum
Experiment: Antimalarial activity against chloroquine-resistant Plasmodium falciparum […]
Type: functional, organism-based
endpointLabel: IC50 (µM)
Answers are plain numbers, in µM.

>>> quantitativereadout("Cc1nnc(Cn2cc(C(=O)NNC(=O)Nc3ccccc3)c(=O)c3cc(F)c(Cl)cc32)n1N")
3.89

Lookup: Could you share which IC50 value was measured for `Cc1nnc(Cn2cc(C(=O)NNC(=S)Nc3ccccc3)c(=O)c3cc(F)c(Cl)cc32)n1N` ?
Found: 3.91

----------
I'd be grateful if you could share measured IC50 for these entries.
Test system: Plasmodium falciparum
Assay: Antimalarial activity against chloroquine-resistant Plasmodium falciparum K1
Type: functional, organism-based

Reference set, count: 8
>>> result("COc1cccc(-n2cc(CN(Cc3cn(-c4cccc(OC)c4)nn3)c3ccc4nc(-c5ccc(F)cc5)c(-c5ccc(F)cc5)nc4c3)nn2)c1")
"9.76 to 3540 µM"
>>> result("FC(F)(F)c1cccc(-n2cc(CNc3ccc4nc(-c5ccccc5)c(-c5ccccc5)nc4c3)nn2)c1")
"7.1 to 153 µM"
>>> result("Cc1ccc(-n2cc(CN(Cc3cn(-c4ccc(C)cc4)nn3)c3ccc4nc(-c5ccc(F)cc5)c(-c5ccc(F)cc5)nc4c3)nn2)cc1")
"9.76 to 3540 µM"
>>> result("Fc1ccc(-n2cc(CN(Cc3cn(-c4ccc(F)cc4)nn3)c3ccc4nc(-c5ccccc5)c(-c5ccccc5)nc4c3)nn2)cc1")
"9.76 to 3540 µM"
>>> result("COc1cccc(-n2cc(CN(Cc3cn(-c4cccc(OC)c4)nn3)c3ccc4nc(-c5ccccc5)c(-c5ccccc5)nc4c3)nn2)c1")
"9.76 to 3540 µM"
>>> result("Fc1ccc(-c2nc3ccc(N(Cc4cn(-c5ccc(F)cc5)nn4)Cc4cn(-c5ccc(F)cc5)nn4)cc3nc2-c2ccc(F)cc2)cc1")
"9.76 to 3540 µM"
>>> result("Cc1ccc(-n2cc(CNc3ccc4nc(-c5ccc(F)cc5)c(-c5ccc(F)cc5)nc4c3)nn2)cc1")
"7.1 to 153 µM"
>>> result("O=[N+]([O-])c1cccc(-n2cc(CN(Cc3cn(-c4cccc([N+](=O)[O-])c4)nn3)c3ccc4nc(-c5ccc(F)cc5)c(-c5ccc(F)cc5)nc4c3)nn2)c1")
"9.76 to 3540 µM"

Dear reader, for each entry below, please note its IC50.
1. c1ccc(-c2nc3ccc(NCc4cn(-c5ccccc5)nn4)cc3nc2-c2ccccc2)cc1
2. Fc1ccc(-c2nc3ccc(NCc4cn(-c5ccccc5)nn4)cc3nc2-c2ccc(F)cc2)cc1

Found:
1: 7.1 to 153 µM; 2: 7.1 to 153 µM
